test system: Rattus norvegicus; experiment: Toxicity in rat assessed as time spent on rotarod at 40 mg/kg, ip by rotarod test; type: organism-based; design: dose 40 mg/kg, route intraperitoneal; details: in vivo
value-kind: Time

>>> df
                                   molecule  observed_result
0  O=C1C(Cl)C(c2ccccc2Br)N1c1nnc(Cn2c3ccccc3c3ccccc32)s1 (centres undefined)             98 s
1  CN(C)c1ccc(C2SCC(=O)N2c2nnc(Cn3c4ccccc4c4ccccc43)s2)cc1 (centres undefined)            104 s
2  COc1cc(C2SCC(=O)N2c2nnc(Cn3c4ccccc4c4ccccc43)o2)ccc1O (centres undefined)          102.8 s
3  COc1cc(C2C(Cl)C(=O)N2c2nnc(Cn3c4ccccc4c4ccccc43)o2)ccc1O (centres undefined)          102.4 s
4  O=C1C(Cl)C(c2ccc(O)cc2O)N1c1nnc(Cn2c3ccccc3c3ccccc32)o1 (centres undefined)          106.4 s
5  O=C1CSC(c2ccc(O)cc2O)N1c1nnc(Cn2c3ccccc3c3ccccc32)s1 (centres undefined)          102.2 s
6  O=C1CSC(c2ccc(O)cc2)N1c1nnc(Cn2c3ccccc3c3ccccc32)o1 (centres undefined)          104.6 s
7  O=C1C(Cl)C(c2ccccc2Br)N1c1nnc(Cn2c3ccccc3c3ccccc32)o1 (centres undefined)           98.8 s
8  O=C1C(Cl)C(c2ccc(O)cc2O)N1c1nnc(Cn2c3ccccc3c3ccccc32)s1 (centres undefined)          102.2 s

Reference source: ChEMBL document CHEMBL1177859
